Biological target: T1, hCMV gH + gL + UL128 + UL130 + UL131A (5-member complex; HEK293T co-transfectant) (hCMV, UniProt P12824 24-743; P16832 31-278; P16837 1-171; P16772 1-214)
T1 construct: whole, on cells; in the functional rows it stands for the complex on virions or transduced cells of the strain or isolate named in the readout; also called gH/gL/UL128-131A complex; pentameric complex
Assay: cell competition; competitor 2F4-biotin
quantity-measured: Inhibition of binding (%)
Report only the number, with the unit % understood.

Task: Field request: Inhibition of binding (%) | item: 8J16 (antibody, V domains shown, human IgG; also called 8J16-biotin) VH: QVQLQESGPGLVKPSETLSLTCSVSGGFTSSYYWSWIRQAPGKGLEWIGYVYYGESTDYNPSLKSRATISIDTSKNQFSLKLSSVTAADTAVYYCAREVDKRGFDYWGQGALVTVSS VL: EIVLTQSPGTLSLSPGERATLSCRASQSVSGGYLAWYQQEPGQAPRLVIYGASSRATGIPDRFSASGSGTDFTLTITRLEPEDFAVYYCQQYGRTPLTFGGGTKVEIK
Result: 0

Task: Field request: Inhibition of binding (%) | item: 4N10 (antibody, V domains shown, human IgG; also called 4N10-biotin) VH: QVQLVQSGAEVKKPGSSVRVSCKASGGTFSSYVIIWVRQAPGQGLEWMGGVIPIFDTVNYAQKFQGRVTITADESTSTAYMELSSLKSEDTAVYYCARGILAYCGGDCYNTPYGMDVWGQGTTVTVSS VL: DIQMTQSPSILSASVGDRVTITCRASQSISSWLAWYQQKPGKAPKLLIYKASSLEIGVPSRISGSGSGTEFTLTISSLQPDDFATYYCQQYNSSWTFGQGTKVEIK
Result: 0

Task: Field request: Inhibition of binding (%) | item: 15D8 (antibody, V domains shown, human IgG; also called 15D8-biotin) VH: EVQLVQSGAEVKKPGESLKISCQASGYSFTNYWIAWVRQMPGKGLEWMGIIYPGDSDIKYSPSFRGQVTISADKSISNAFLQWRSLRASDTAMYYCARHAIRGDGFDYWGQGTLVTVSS VL: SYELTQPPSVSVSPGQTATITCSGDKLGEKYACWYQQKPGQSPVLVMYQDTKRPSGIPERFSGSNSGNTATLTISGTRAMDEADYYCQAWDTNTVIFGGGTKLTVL
Result: 0

Task: Field request: Inhibition of binding (%) | item: 10P3 (antibody, V domains shown, human IgG) VH: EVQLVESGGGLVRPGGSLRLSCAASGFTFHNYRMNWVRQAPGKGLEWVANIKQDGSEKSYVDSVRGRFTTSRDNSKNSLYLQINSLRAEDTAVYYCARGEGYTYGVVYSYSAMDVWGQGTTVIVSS VL: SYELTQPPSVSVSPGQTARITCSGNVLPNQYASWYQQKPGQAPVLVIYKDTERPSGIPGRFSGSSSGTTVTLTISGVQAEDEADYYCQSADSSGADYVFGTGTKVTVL
Result: 0

Task: Field request: Inhibition of binding (%) | item: 9I6 (antibody, V domains shown, human IgG; also called 9I6-biotin; 916) VH: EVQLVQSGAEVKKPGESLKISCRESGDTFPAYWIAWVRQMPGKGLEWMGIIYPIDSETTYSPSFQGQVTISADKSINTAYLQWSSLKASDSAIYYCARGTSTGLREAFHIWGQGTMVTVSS VL: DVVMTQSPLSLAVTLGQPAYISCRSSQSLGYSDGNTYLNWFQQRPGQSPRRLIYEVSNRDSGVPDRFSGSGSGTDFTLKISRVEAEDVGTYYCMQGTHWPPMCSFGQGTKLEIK
Result: 0

Task: Field request: Inhibition of binding (%) | item: 4I22 (antibody, human IgG1, V domains shown, fully human IgG1 with unaltered Fc; also called 4I22-biotin; 4122) VH: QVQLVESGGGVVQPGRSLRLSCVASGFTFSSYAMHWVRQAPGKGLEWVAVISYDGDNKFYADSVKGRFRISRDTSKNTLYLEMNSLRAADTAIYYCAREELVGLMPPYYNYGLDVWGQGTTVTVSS VL: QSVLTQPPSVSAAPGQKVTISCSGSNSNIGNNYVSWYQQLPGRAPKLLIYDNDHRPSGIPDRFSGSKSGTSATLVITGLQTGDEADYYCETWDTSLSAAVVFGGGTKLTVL
Result: 100

Just for reference, patent US20170296650A1 is where these values come from.
